Every entry's value here was drawn from patent US11642343B2.

# TARGET OR SYSTEM: BTK (Homo sapiens)
# Sequence (Q06187 whole entry): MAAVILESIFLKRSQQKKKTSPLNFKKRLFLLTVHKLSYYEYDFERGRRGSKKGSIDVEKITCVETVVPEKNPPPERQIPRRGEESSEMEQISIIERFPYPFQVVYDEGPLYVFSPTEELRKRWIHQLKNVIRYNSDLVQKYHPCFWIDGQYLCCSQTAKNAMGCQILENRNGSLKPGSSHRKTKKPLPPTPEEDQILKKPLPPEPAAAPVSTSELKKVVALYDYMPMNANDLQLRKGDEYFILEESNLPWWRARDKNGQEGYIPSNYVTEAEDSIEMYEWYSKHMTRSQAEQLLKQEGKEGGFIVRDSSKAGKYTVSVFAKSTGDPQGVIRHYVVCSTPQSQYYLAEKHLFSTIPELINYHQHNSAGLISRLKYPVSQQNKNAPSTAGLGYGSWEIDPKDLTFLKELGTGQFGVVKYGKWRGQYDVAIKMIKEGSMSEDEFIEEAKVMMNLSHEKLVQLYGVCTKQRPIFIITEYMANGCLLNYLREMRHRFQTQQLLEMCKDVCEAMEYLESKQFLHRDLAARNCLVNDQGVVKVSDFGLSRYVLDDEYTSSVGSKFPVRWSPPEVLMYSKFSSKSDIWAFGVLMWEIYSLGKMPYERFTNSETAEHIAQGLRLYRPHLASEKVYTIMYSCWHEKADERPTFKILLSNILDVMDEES
# EXPERIMENT SUMMARY: Inhibition of BTK phosphorylation (activation) in healthy B-cells
# Assay type: cell-based
# Design: endogenous in cells
# EXPERIMENTAL SETUP: healthy PBMC incubated two hours with 10 minutes of αIgM and H2O2 stimulation
PROPERTY NAME: EC50
Don't forget the unit after the value.

Inquiry: Which EC50 is reported for this compound? C=CC(=O)N1CCC(F)(CNc2ncnc(N)c2-c2ccc(Oc3ccccc3)cc2)CC1 [Compound No. 128]
Reply text: 16.9 nM
